Cited source: patent US12662541B2

Reported values of kd for individual entries
Assayed System: T1, rhEphA5 antigen (Homo sapiens, UniProt P54756)
T1 construct: purchased R and D systems 3036-A5
Test Name: kd (1/s)
Give the quantity in s⁻¹, number only.

molecule="VH2/VK1: humanized anti-EphA5 antibody, VH SEQ ID NO:3, VL SEQ ID NO:9 (antibody, V domains shown) VH: EVTLVESGGGLVQPGGSLKLSCAASGFTFSTFGIHWVRQAPGKGLEWVAYISGASTTIYYADTVKGRFTISRDNSKNTLYLQMNSLRSEDTAMYYCARYGTSFPYGLDYWGQGTLVTVSS VL: DIVMTQSPGSLAVSLGERATINCKASQSVDYDGDSYMNWYQQKPGKAPKLLIYGASNLESGIPDRFSGSGSGTDFTLTISRLEEEDAASYYCQQSNEDPFTFGQGTKLEIK" endpoint_unit=s⁻¹ test_value=0.0012

Q: State the recorded kd for this entry: VH3/VK2: humanized anti-EphA5 antibody, VH SEQ ID NO:4, VL SEQ ID NO:10 (antibody, V domains shown) VH: EVQLVESGGGLVQPGGSLKLSCAASGFTFSTFGIHWVRQAPGKGLEWVAYISGASTTIYYADTVKGRFTISRDNSKNTLYLQMNSLRSEDTAMYYCARYGTSFPYGLDYWGQGTLVTVSS VL: DIVMTQSPDSLAVSLGERATINCKASQSVDYDGDSYMNWYQQKPGKAPKLLIYGASNLESGIPDRFSGSGSGTDFTLTISRLEPEDAASYYCQQSNEDPFTFGQGTKLEIK
Result: 0.0013
